- tested.system: T1, 4H584-bA
- T1 chain: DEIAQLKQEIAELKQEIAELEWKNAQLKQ
- assay.comment: two-hybrid library CCNG1;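 also: natural log of median RNA to DNA barcode read ratio; higher means stronger binding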
Kindly supply the reported interaction score values for the records listed here.
Write no unit; give the number alone.

Short answer for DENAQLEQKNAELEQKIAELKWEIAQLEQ [4H1449-bA] : interaction score was -1.3

Short answer for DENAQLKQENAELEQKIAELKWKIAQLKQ [4H1710-bA] : interaction score was -0.0679

Short answer for DEIAQLKQEIAELKQEIAELEWKNAQLKQ [4H584-bA] : interaction score was 0.598

Short answer for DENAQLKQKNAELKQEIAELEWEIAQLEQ [4H1985-bA] : interaction score was -1.42
